test system: human airway epithelial cells (HAECs); assay: Agilent miRNA chips, miRNA expression at four stages of differentiation of HAECs; details: stage WD; Table VI
quantity.measured: Level of intensity of expression in log2 measured with the Agilent chips, WD (log2)
Write the answer as a number in log2, unit excluded.

substance | target.desc | units.of.measure | value.observed
hsa-miR-96: human miRNA, SEQ ID No. 51 (UUUGGCACUAGCACAUUUUUGCU; expressed or natural sequence; listed as Homo sapiens) | human airway epithelial cells (HAECs) | log2 | 9.16
hsa-miR-15a: human miRNA, SEQ ID No. 9 (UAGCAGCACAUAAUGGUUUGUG; expressed or natural sequence; listed as Homo sapiens) | human airway epithelial cells (HAECs) | log2 | 9.61
hsa-miR-191: human miRNA, SEQ ID No. 13 (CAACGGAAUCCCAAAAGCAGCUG; expressed or natural sequence; listed as Homo sapiens) | human airway epithelial cells (HAECs) | log2 | 2.95
hsa-miR-16: human miRNA, SEQ ID No. 10 (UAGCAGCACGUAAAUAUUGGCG; expressed or natural sequence; listed as Homo sapiens) | human airway epithelial cells (HAECs) | log2 | 11.06

Could you now consider this next substance?
QUERY: If you can, please state the reported Level of intensity of expression in log2 measured with the Agilent chips, WD value of hsa-miR-148a: human miRNA, SEQ ID No. 7 (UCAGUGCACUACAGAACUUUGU; expressed or natural sequence; listed as Homo sapiens) .
RESULT: 8.95
